Notes on IC50 obtained with progesterone receptor (PR) (Homo sapiens).
measurement type: IC50 (nM)

Below, 3 compounds whose answers are already recorded.
>>> assay_result("COc1cccc2c1-c1ccc(NS(C)(=O)=O)cc1C(c1ccc(C#N)cc1)O2 (centres unmarked)")
3480
>>> assay_result("C=CCOc1cccc(C2Oc3cccc(OC(F)F)c3-c3ccc(NS(C)(=O)=O)cc32)c1 (centres unmarked)")
1050
>>> assay_result("CS(=O)(=O)Nc1ccc2c(c1)C(c1cccc(F)c1)Oc1cccc(OC(F)F)c1-2 (centres unmarked)")
60

[A] COc1cccc2c1-c1ccc(NS(C)(=O)=O)cc1C(c1ccc(-c3ccccc3)s1)O2 (centres unmarked)
[B] CS(=O)(=O)Nc1ccc2c(c1)C(c1ccccc1)Oc1cccc(OC(F)F)c1-2 (centres unmarked)
Lookup: Could you kindly indicate whether A or B has the higher IC50 value? // respond with label for picked entry
Found: B
(B: 370 nM, A: 250 nM)

----------
- target under test: Human glucocorticoid receptors (Homo sapiens, UniProt P04150)
- Construct: made in house; host or cells: Sf9 insect cells, recombinant baculovirus (BAC-TO-BAC)
- Sequence (P04150 whole entry): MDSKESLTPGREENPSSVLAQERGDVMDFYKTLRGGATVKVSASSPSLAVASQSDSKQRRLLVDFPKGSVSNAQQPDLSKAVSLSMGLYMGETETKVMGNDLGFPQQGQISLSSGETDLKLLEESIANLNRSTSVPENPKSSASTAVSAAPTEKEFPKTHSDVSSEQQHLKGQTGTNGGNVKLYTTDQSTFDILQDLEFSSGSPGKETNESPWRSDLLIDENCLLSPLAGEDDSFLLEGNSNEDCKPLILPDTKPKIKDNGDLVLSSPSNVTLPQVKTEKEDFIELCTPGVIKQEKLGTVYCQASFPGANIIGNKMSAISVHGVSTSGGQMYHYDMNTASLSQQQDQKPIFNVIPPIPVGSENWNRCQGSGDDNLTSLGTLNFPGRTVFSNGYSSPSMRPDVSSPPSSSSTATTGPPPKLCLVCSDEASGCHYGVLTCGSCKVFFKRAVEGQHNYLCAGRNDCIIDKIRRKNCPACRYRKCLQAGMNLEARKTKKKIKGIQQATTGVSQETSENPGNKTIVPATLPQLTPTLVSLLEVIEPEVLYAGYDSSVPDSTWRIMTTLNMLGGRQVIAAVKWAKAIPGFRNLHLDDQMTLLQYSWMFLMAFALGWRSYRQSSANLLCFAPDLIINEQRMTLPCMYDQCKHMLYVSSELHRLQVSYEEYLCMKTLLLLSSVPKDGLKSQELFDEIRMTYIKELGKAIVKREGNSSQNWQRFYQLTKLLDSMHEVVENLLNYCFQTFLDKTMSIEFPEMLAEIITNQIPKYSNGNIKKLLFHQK
- experiment: Radioligand filter binding assay, displacement of 3(H)-dexamethasone from human glucocorticoid receptor cytosol
- setup conditions: 1.7 μM test compound; inhibition of 3(H)-dex binding to hGR
measurement type: GR BINDING (% Inhibition @ 1.7 μM) (%)

Known GR BINDING (% Inhibition @ 1.7 μM) results, listed for orientation:
>>> assay_result("COc1cccc2c1-c1ccc(NC(=O)C3CC3)cc1C(c1ccccc1)O2 (stereo not shown)")
74.3
>>> assay_result("C=CCCCc1cccc(C2Oc3cccc(OC)c3-c3ccc(NS(C)(=O)=O)cc32)c1 (stereo not shown)")
87.4
>>> assay_result("COc1cccc2c1-c1ccc(NS(C)(=O)=O)cc1C(c1ccc(Oc3ccc(Br)cc3)cc1)O2 (stereo not shown)")
92.8
>>> assay_result("COc1cccc2c1-c1ccc(NS(C)(=O)=O)cc1C(c1cccc(O)c1)O2 (stereo not shown)")
81.6

[1] COc1cccc2c1-c1ccc(CS(N)(=O)=O)cc1C(C1CCCCC1=O)O2 (stereo not shown)
[2] CCS(=O)(=O)Nc1ccc2c(c1)C(c1ccccc1)Oc1cccc(OC)c1-2 (stereo not shown)
Lookup: // compare: 1 vs 2 , metric GR BINDING (% Inhibition @ 1.7 μM), want the smaller Answer format: the label of the selected item.
Found: 1
(1: 58.8%, 2: 90.6%)

----------
- target under test: progesterone receptor (PR) (Homo sapiens, UniProt P06401)
- Sequence (P06401 1-933): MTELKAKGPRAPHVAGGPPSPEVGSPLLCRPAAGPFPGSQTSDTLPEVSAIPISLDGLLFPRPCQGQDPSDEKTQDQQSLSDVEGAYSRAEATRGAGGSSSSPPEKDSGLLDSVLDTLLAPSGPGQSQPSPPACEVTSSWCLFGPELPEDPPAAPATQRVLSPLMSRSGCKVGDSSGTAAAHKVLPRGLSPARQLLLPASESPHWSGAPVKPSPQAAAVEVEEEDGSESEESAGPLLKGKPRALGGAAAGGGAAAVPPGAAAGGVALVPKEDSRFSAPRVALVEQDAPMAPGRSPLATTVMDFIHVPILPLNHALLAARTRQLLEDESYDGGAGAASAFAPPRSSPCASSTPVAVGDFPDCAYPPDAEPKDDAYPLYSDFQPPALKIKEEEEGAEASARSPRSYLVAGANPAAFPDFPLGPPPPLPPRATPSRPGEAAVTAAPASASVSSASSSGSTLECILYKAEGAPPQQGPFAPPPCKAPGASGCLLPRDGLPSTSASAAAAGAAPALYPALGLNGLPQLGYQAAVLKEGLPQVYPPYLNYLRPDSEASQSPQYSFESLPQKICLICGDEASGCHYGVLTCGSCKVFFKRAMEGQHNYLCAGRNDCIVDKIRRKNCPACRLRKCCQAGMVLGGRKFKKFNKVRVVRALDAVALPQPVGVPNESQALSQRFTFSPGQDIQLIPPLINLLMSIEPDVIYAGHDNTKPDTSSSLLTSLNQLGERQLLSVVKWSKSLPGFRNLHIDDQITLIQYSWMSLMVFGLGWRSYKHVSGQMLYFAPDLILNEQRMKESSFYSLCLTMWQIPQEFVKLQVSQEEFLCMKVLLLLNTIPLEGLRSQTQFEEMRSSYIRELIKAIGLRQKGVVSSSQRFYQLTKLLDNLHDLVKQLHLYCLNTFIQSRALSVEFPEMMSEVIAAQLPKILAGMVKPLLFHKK
measurement type: IC50 (nM)

[A] CCOC(=O)c1cccc(C2Oc3cccc(OC(F)F)c3-c3ccc(NS(C)(=O)=O)cc32)c1 (stereo not drawn)
[B] CCOC(=O)CCc1cccc(C2Oc3cccc(OC(F)F)c3-c3ccc(NS(C)(=O)=O)cc32)c1 (stereo not drawn)
Lookup: Which numeric IC50 is bigger, that of A or that of B ? Identify your pick by its label.
Found: B
(B: 610 nM, A: 290 nM)
